System: TrxR in A549 cell lysates
Assay: Thioredoxin reductase activity in lysates of treated A549 cells
Type: cell-based, human
Details: A549, 24 h treatment; stated for both cell lines
readout type: TrxR activity reduction / inhibition

INSERT INTO assay_data (substance_smiles, measured) VALUES
  ('C[n+]1ccn(Cc2ccccc2)[c]1[Au-]([Br])([Br])[Br]', '30–40%'),
  ('Cn1cc[n+](C)[c]1[Au-]([Br])([Br])[Br]', '30–40%'),
  ('Cn1cc[n+](C)[c]1[Au-]([Cl])([Cl])[Cl]', '20–30%');

Field: next compound
The compound identified as C[n+]1ccn(Cc2ccccc2)[c]1[Au-]([Cl])([Cl])[Cl] registered its TrxR activity reduction / inhibition at 20–30%

* * *

Reported Mean Diff. TrxR activity vs. veh values for a set of compounds
System: TrxR in A549 cell lysates
Assay: Thioredoxin reductase activity in lysates of treated A549 cells
Assay type: cell-based, human
Details: A549 lysate, 24 h treatment at 5 μM, reading at 110 min
Only the number, expressed in %, is required.

The examples below pair each entry with its known result.
INSERT INTO measurements (substance_smiles, tested_system, unit_label, measured) VALUES
  ('C[n+]1ccn(Cc2ccccc2)[c]1[Au-]([Cl])([Cl])[Cl]', 'TrxR in A549 cell lysates', '%', '−30.44'),
  ('Cn1cc[n+](C)[c]1[Au-2]([Cl])[P+](c1ccccc1)(c1ccccc1)c1ccccc1', 'TrxR in A549 cell lysates', '%', '−82.25'),
  ('Clc1n[c]([Au-][P+](c2ccccc2)(c2ccccc2)c2ccccc2)n(Cc2ccccc2)c1Cl', 'TrxR in A549 cell lysates', '%', '−53.76');

Consider now this further compound.
C[n+]1ccn(Cc2ccccc2)[c]1[Au-]([Br])([Br])[Br] has a reported Mean Diff. TrxR activity vs. veh of −38.86

* * *

Molecular target: recombinant human DHFR (hDHFR) (Homo sapiens, UniProt P00374)
Construct: made in house; host or cells: E. coli BL21, plasmid pET17b (gift of C. Robert Matthews)
Sequence (P00374 whole entry): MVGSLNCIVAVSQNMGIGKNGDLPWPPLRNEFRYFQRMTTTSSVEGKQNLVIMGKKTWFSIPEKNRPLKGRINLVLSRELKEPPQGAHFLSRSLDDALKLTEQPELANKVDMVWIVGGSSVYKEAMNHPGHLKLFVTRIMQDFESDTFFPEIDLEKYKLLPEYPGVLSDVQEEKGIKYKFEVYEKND
Assay: Cell-free human dihydrofolate reductase enzymatic activity
Format: biochemical
Conditions: dihydrofolate concentration comparable with the Km; read-out: hDHFR IC50 (conclusions)
readout type: IC50

Form: compound = Cn1cc[n+](C)[c]1[Au-2]([Cl])[P+](c1ccccc1)(c1ccccc1)c1ccccc1 ; IC50 = ~15 µM

* * *

Measured Mean Diff. TrxR activity vs. veh, listed per entry.
Test system: TrxR in H522 cell lysates
Assay: Thioredoxin reductase activity in lysates of treated H522 cells
Assay type: cell-based, human
Conditions: H522 lysate, 24 h treatment at 5 μM, reading at 90 min
Protocol: The enzymatic activity of TrxR in the A549 and H522 cell lysates was measured using the TrxR assay Kit (Abcam ab83463) following the manufacturer’s instructions. […] They were treated with 5 μM of the gold compounds or the equivalent quantity of DMSO for 24 h. […] The OD412 was measured soon after the substrate addition (A1) and then after 25, 60, 90, and 110 min (An) at 25 °C using a FLUOstar Omega Microplate Reader (BGM Labtech, Chicago, IL, USA). […]
Reply with just the number (in %).

Examples from the recorded data:
INSERT INTO assay_data (compound, measured) VALUES
  ('C[n+]1ccn(Cc2ccccc2)[c]1[Au-]([Br])([Br])[Br] [Compound 6]', '−39.82'),
  ('C[n+]1ccn(Cc2ccccc2)[c]1[Au-][Br] [Compound 4]', '−0.3654'),
  ('C[n+]1ccn(Cc2ccccc2)[c]1[Au-]([Cl])([Cl])[Cl] [Compound 2]', '−23.38'),
  ('Cn1cc[n+](C)[c]1[Au-]([Br])([Br])[Br] [Compound 5]', '−41.1'),
  ('Cn1cc[n+](C)[c]1[Au-]([Cl])([Cl])[Cl] [Compound 1]', '−20.1');

Briefly, Mean Diff. TrxR activity vs. veh measured for Clc1n[c]([Au-][P+](c2ccccc2)(c2ccccc2)c2ccccc2)n(Cc2ccccc2)c1Cl [Compound 7] : −90.61

Entry under test: Cn1cc[n+](C)[c]1[Au-2]([Cl])[P+](c1ccccc1)(c1ccccc1)c1ccccc1 [Compound 8] . Its Mean Diff. TrxR activity vs. veh was −91.89

* * *

Test system: TrxR in A549 cell lysates
Experiment: Thioredoxin reductase activity in lysates of treated A549 cells
Format: cell-based, human
Settings: A549 lysate, 24 h treatment at 5 μM, reading at 90 min
Description: The enzymatic activity of TrxR in the A549 and H522 cell lysates was measured using the TrxR assay Kit (Abcam ab83463) following the manufacturer’s instructions. […] They were treated with 5 μM of the gold compounds or the equivalent quantity of DMSO for 24 h. […] The OD412 was measured soon after the substrate addition (A1) and then after 25, 60, 90, and 110 min (An) at 25 °C using a FLUOstar Omega Microplate Reader (BGM Labtech, Chicago, IL, USA). […]
hey, just use satisfied if measured Mean Diff. TrxR activity vs. veh is less than -30%, otherwise not satisfied

INSERT INTO assay_data (substance_smiles, assigned_label) VALUES
  ('Clc1n[c]([Au-][P+](c2ccccc2)(c2ccccc2)c2ccccc2)n(Cc2ccccc2)c1Cl', 'satisfied'),
  ('Cn1cc[n+](C)[c]1[Au-2]([Cl])[P+](c1ccccc1)(c1ccccc1)c1ccccc1', 'satisfied'),
  ('Cn1cc[n+](C)[c]1[Au-]([Br])([Br])[Br]', 'satisfied'),
  ('C[n+]1ccn(Cc2ccccc2)[c]1[Au-][Br]', 'not satisfied');

Determine whether this molecule shows Mean Diff. TrxR activity vs. veh lower than -30% (ties excluded): Cn1cc[n+](C)[c]1[Au-]([Cl])([Cl])[Cl]
not satisfied

In the record for C[n+]1ccn(Cc2ccccc2)[c]1[Au-]([Br])([Br])[Br] , is Mean Diff. TrxR activity vs. veh less than -30%?
satisfied

Hello, is Mean Diff. TrxR activity vs. veh of the following molecule strictly smaller than -30%? C[n+]1ccn(Cc2ccccc2)[c]1[Au-]([Cl])([Cl])[Cl]
not satisfied

* * *

Reported pIC50 values for the following compounds.
Tested on: H1792
Assay: MTT viability assay, H1792
Format: cell-based, human
Conditions: mean ± span, 48 h treatment, cell line with KRAS mutation
Description: NSCLC cell lines were obtained from the Hamon Center for Therapeutic Oncology Research (UT Southwestern Medical Center). IMR-90 human lung fibroblasts were from ATCC (CC-186). […] 5000–10,000 cells/0.1 mL/well were seeded in 96-well plates to achieve 70% confluence after 24 h. […] The absorbance was read at 570 nm (OD 570 nm). […]
Convention used: pIC50 is expressed as -log10 of the molar concentration.

Here is how some compounds turned out for pIC50.
INSERT INTO measurements (substance_smiles, tested_system, readout_type, measured) VALUES
  ('Clc1n[c]([Au-][P+](c2ccccc2)(c2ccccc2)c2ccccc2)n(Cc2ccccc2)c1Cl', 'H1792', 'pIC50', 4.92),
  ('C[n+]1ccn(Cc2ccccc2)[c]1[Au-][Br]', 'H1792', 'pIC50', 4.80),
  ('Cn1cc[n+](C)[c]1[Au-]([Cl])([Cl])[Cl]', 'H1792', 'pIC50', 4.22);

# compound C[n+]1ccn(Cc2ccccc2)[c]1[Au-]([Br])([Br])[Br] ; its pIC50 = 4.82

Lab book: pIC50 of C[n+]1ccn(Cc2ccccc2)[c]1[Au-]([Cl])([Cl])[Cl] noted as 4.62

Reported pIC50 ( Cn1cc[n+](C)[c]1[Au-2]([Cl])[P+](c1ccccc1)(c1ccccc1)c1ccccc1 ) = 4.82

* * *

Target: recombinant human DHFR (hDHFR) (Homo sapiens, UniProt P00374)
Construct: made in house; host or cells: E. coli BL21, plasmid pET17b (gift of C. Robert Matthews)
Experiment: Cell-free human dihydrofolate reductase enzymatic activity
Type: biochemical
Conditions: H2F concentration 21.0 µM; read-out: hDHFR IC50
readout type: IC50 (µM)
A number alone suffices; assume µM.

Tested system recombinant human DHFR (hDHFR) (Homo sapiens, UniProt P00374); IC50 recorded for Clc1n[c]([Au-][P+](c2ccccc2)(c2ccccc2)c2ccccc2)n(Cc2ccccc2)c1Cl [Compound 7] was 23.6

* * *

Readings of IC50 for the listed molecules
Tested on: HCC-44
Experiment: MTT viability assay, HCC-44
Format: cell-based, human
Details: mean ± span, 48 h treatment, cell line with KRAS mutation
Response body: numeric value in µM, unit text excluded.

The following molecules have reported results that may help.
INSERT INTO measurements (substance_smiles, measured) VALUES
  ('C[n+]1ccn(Cc2ccccc2)[c]1[Au-]([Br])([Br])[Br]', 19),
  ('Cn1cc[n+](C)[c]1[Au-]([Br])([Br])[Br]', 32),
  ('Cn1cc[n+](C)[c]1[Au-]([Cl])([Cl])[Cl]', 45),
  ('Cn1cc[n+](C)[c]1[Au-2]([Cl])[P+](c1ccccc1)(c1ccccc1)c1ccccc1', 7.3),
  ('Clc1n[c]([Au-][P+](c2ccccc2)(c2ccccc2)c2ccccc2)n(Cc2ccccc2)c1Cl', 9.2);

Noted for C[n+]1ccn(Cc2ccccc2)[c]1[Au-][Br] : its IC50 reads 14

The reported IC50 of the molecule C[n+]1ccn(Cc2ccccc2)[c]1[Au-]([Cl])([Cl])[Cl] was 26
